All figures here come from paper PMC9090415.

- Subject Of Test: P. falciparum apicoplast DNA polymerase (Pf-apPOL) (Plasmodium falciparum, UniProt Q8ILY1)
- Sequence (Q8ILY1 entry or part of it): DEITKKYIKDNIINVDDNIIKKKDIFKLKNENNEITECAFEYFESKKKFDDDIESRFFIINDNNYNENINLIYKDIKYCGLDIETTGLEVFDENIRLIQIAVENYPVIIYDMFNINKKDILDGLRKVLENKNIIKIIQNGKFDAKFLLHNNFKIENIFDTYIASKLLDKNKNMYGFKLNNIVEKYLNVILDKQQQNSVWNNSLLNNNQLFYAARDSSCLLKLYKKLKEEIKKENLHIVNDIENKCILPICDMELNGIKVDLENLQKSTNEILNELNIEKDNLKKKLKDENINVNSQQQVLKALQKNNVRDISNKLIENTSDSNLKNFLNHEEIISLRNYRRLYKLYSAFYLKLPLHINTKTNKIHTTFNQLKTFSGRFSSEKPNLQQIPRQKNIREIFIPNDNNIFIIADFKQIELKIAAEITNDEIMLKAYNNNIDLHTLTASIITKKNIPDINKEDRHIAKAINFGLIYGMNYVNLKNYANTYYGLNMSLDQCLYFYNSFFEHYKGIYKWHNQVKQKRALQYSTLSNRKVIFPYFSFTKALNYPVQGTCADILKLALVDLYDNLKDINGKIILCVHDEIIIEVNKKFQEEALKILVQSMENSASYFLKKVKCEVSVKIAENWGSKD
- Experiment Notes: Fluorescence-based high-throughput DNA polymerase assay (molecular beacon), primary screen and dose-response
- Assay type: biochemical
- Measurement Context: 'DNA Pol' of the 186 hits list (primary screen value); 90 min, 10 µM
- Source text: The HT assay employs a molecular beacon, a stem-loop DNA template with a Cy3 dye and the Black Hole Quencher on the 3′ and 5′ ends of the DNA, respectively. Pf-apPOL concentration is based on a calculated absorptivity of ε280 = 56750 M^−1 cm^−1. […] To identify apPOL inhibitors we utilised our previously developed high-throughput DNA polymerase assay. […] The assay accurately recapitulates the kinetic behaviour of apPOL, as measured through more conventional low-throughput gel-based assays. […]
Endpoint: DNA Pol
Number only, please.

| Molecule | DNA Pol |
| --- | --- |
| O=C1CCCC2=C1C(c1ccccn1)C1=C(CCCC1=O)O2 [KU0194228] | 11 |
| O=C(Cn1ccc2c(=O)[nH]ccc21)Nc1cc(F)ccc1F [Molecule 42, O=C(Cn1ccc2c1cc[nH]c2=O)Nc1cc(F)ccc1F] | 40 |
| COc1ccc(CNC(=O)Cn2nc3c(c2NC(=O)Cc2cccs2)CSC3)cc1 [Molecule 55] | 42 |

Fill in the blank: the reported DNA Pol of COc1ccc(C(=O)N2CCc3c(nc4cc(-c5ccccc5Cl)[nH]n4c3=O)C2)cn1 [Molecule 26] is ____.
36

Continue with CC(C)(C)OC(=O)COc1ccc2cc(-c3ccccc3)c(=O)oc2c1 [Molecule 81]
44

Can you handle CC(=O)c1cc2c(N)c(/C(N)=N/C#N)sc2nc1C [KU0015866] next?
33

Subsequent entry: Cc1ccc(-n2nnc(C(=O)O)c2-c2ccccn2)c(F)c1 [Molecule 54, Cc1ccc(c(c1)F)n1nnc(c1c1ccccn1)C(=O)O]
25

Let us now turn to O=c1[nH]c2ccc([N+](=O)[O-])cc2c(-c2ccccc2)c1Sc1nc2ccccc2o1 [KU0067471]
28

====

- Subject Of Test: bacteriophage T4 DNA polymerase (Enterobacteria phage T4, UniProt P04415)
- Construct: made in house
- Sequence (P04415 whole entry): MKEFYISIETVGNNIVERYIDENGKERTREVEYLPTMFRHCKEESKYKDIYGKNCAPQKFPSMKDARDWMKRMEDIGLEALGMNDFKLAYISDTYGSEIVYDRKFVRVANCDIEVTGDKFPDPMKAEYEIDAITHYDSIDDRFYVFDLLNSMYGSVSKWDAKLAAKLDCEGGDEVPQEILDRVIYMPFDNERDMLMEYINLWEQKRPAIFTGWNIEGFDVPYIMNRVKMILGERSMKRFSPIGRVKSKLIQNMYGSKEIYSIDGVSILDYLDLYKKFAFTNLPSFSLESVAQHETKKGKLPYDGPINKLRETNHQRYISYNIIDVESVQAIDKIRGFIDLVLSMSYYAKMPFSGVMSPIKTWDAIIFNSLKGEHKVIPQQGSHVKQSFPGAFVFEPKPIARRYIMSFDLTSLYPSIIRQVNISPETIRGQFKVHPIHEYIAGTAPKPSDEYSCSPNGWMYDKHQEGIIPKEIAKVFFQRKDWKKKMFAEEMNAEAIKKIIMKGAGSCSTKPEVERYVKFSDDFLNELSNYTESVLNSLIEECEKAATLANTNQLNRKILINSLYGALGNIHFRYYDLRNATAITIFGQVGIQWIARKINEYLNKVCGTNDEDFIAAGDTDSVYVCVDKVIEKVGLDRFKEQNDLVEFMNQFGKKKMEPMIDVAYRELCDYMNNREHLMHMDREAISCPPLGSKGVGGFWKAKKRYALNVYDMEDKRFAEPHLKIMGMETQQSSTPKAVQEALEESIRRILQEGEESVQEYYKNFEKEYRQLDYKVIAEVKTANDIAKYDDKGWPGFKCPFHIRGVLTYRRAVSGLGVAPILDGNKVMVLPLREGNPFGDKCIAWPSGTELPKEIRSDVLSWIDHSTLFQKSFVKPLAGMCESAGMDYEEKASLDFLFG
- Experiment Notes: Counter-screen against bacteriophage T4 DNA polymerase
- Assay type: biochemical
- Measurement Context: DRC-2; 10'; concentration 2.5
- Description: Codon-optimized, exonuclease-deficient Pf-apPOL was overexpressed in E. coli BL21 (DE3) and purified as described. The protein was dialysed against two, 1-liter changes of 20 mM Tris-HCl (pH 8.0), 400 mM NaCl, and 20% glycerol. […] Each compound was tested in a dose-response format to determine IC50 values. […] T4 DNA polymerase can be produced in large quantities, and is in the same family (B-family) as the replicative human DNA polymerases (α, δ, and ε)[20].
Measured % inhibition T4 10', listed per entry for reference.
Output spec: scalar in %, unitless text.

| Compound | % inhibition T4 10' (%) |
| --- | --- |
| COc1ccc(C(=O)N2CCc3c(nc4cc(-c5ccccc5Cl)[nH]n4c3=O)C2)cn1 | -4 |

Which % inhibition T4 10' value is on record for "Cc1ccc(C)n1-c1ccc(C(=O)NNC(=O)c2ccc3nccnc3c2)cc1" ?
15

# iterate: "CCCCC(=O)N1CCc2c(nc3cc(-c4ccccc4Cl)[nH]n3c2=O)C1"
6

# iterate: "CCOC(=O)C1=C2c3cc(OC)c(OC)cc3CC(C)(C)N2C(=O)C1=O"
9

Now the compound "COc1ccc(-c2cc3nc4c(c(=O)n3[nH]2)CCN(C(=O)CCc2ccccc2)C4)cc1"
-22

Try this compound next: Cl.NC(CO)C(=O)NNCc1ccc(O)c(O)c1O (stereo not drawn)
-17

Also need "N#CC(=NNc1cc(C(F)(F)F)cc(C(F)(F)F)c1)C(=O)c1ccco1" , thanks.
9

Ok, now "COc1ccc(-c2n[nH]cc2Oc2ccc(Cl)cc2)c(O)c1"
-22

Okay, and "Cc1ccccc1C(=O)N1CCc2c(nc3cc(-c4ccccc4)[nH]n3c2=O)C1" ?
10

Lookup O=C1N=C(Nc2cccc(Cl)c2Cl)S/C1=C\c1ccco1 [Molecule 3, O=C1N=C(S/C/1=C\c1ccco1)Nc1cccc(c1Cl)Cl]
26

Item: O=C(Cn1ccc2c(=O)[nH]ccc21)Nc1cc(F)ccc1F [Molecule 42, O=C(Cn1ccc2c1cc[nH]c2=O)Nc1cc(F)ccc1F]
-1.82

// next record "O=[N+]([O-])c1ccc(/C=C/c2ccc3ccccc3n2)o1"
23

Queued: "CC(=O)c1cc2c(N)c(/C(N)=N/C#N)sc2nc1C"
-16

Subsequent entry: "Cc1ccc(-n2nnc(C(=O)O)c2-c2ccccn2)c(F)c1"
18

Another compound to look at: "O=C(Cc1cc(=O)[nH]c(SCc2ccccc2)n1)Nc1ccc2c(c1)OCO2"
-13

// next record "O=C1c2ccccc2C(=O)N1Oc1ccc([N+](=O)[O-])c([N+](=O)[O-])c1"
-5

And the next one, "O=C(O)CCS(=O)(=O)c1ccc(-c2ccc(S(=O)(=O)CCC(=O)O)cc2)cc1" ?
-14

"Cc1nc(/N=N/c2ccc(C(=O)[O-])cc2)c(COP(=O)([O-])[O-])c(C=O)c1O.[Na+].[Na+].[Na+]" ?
-16
